I'd be grateful if you could share measured MBC for these entries.
# System: Acinetobacter sp. (H064200250)
# ASSAY_PROCEDURE: Preliminary MBC without and with sub-inhibitory polymyxin B (Example 4)
# Format: cell-based
# ASSAY_CONTEXT: Acinetobacter, Acinetobacter spp. H064200250; without polymyxin B; preliminary MBC; 1st experiment; read-out: MBC without PB
# Description: The plates were incubated for 18-20 hours at 37° C. The MBC was read as the lowest concentration at which colony growth was ca. 90% less than the positive control (i.e. usually where single colonies or no colonies were observed).
Answers are plain numbers, in µg/mL.

MOLECULE: Cc1c(-c2ccc(N)c(F)c2)ccn2c(=O)c(C(=O)O)cc(C3CC3)c12
TARGET_SYSTEM: Acinetobacter sp. (H064200250)
VALUE_MEASURED: 8
--
MOLECULE: Cc1c(-c2ccc(CN)cc2)c(F)cn2c(=O)c(C(=O)O)cc(C3CC3)c12
TARGET_SYSTEM: Acinetobacter sp. (H064200250)
VALUE_MEASURED: 8
--
MOLECULE: C[C@@H](O)[C@H]1C(=O)N2C(C(=O)O)=C(SCCN=CN)C[C@H]12 [Imipenem, reference compound]
TARGET_SYSTEM: Acinetobacter sp. (H064200250)
VALUE_MEASURED: 16
--
MOLECULE: NCC[C@H](O)C(=O)N[C@@H]1C[C@H](N)[C@@H](O[C@H]2O[C@H](CN)[C@@H](O)[C@H](O)[C@H]2O)[C@H](O)[C@H]1O[C@H]1O[C@H](CO)[C@@H](O)[C@H](N)[C@H]1O [Amikacin, reference compound]
TARGET_SYSTEM: Acinetobacter sp. (H064200250)
VALUE_MEASURED: 16

Hi! Can you tell me MBC for each of these molecules?
1. Cc1c(-c2ccc(CN)c(F)c2)ccn2c(=O)c(C(=O)O)cc(C3CC3)c12
2. C[C@@H](O)[C@H]1C(=O)N2C(C(=O)O)=C(S[C@@H]3CN[C@H](C(=O)N(C)C)C3)[C@H](C)[C@H]12 [Meropenem, reference compound]

16
16

###

I'd be grateful if you could share measured MIC for these entries.
# System: E. coli ATCC 25922
# ASSAY_PROCEDURE: MIC, selected panel of Gram-positive and Gram-negative strains (Example 5)
# Format: cell-based, Escherichia coli
# ASSAY_CONTEXT: Escherichia coli, ATCC25922, read-out: MIC E. coli ATCC 25922

See these solved cases before continuing.
COMPOUND: Cc1n[nH]c2ccc(-c3ccn4c(=O)c(C(=O)[O-])cc(C5CC5)c4c3C)cc12.[K+] [Compound 80K salt]
MIC: 0.064 µg/mL
--
COMPOUND: CNc1ccc(-c2ccn3c(=O)c(C(=O)[O-])cc(C4CC4)c3c2C)cn1.[K+] [Compound 78K salt]
MIC: 0.064 to 0.125 µg/mL
--
COMPOUND: Cc1c(-c2ccc3c(c2)C(=O)NC3)ccn2c(=O)c(C(=O)[O-])cc(C3CC3)c12.[K+] [Compound 68K salt]
MIC: 0.064 µg/mL
--
COMPOUND: Cc1c(-c2ccc(CN)s2)ccn2c(=O)c(C(=O)[O-])cc(C3CC3)c12.[K+] [Compound 13K salt]
MIC: 0.016 µg/mL
--
COMPOUND: Cc1c(-c2cccc(O)c2)ccn2c(=O)c(C(=O)[O-])cc(C3CC3)c12.[K+] [Compound 56K salt]
MIC: 0.032 µg/mL
--
COMPOUND: Cc1c(-c2cccc3[nH]ncc23)ccn2c(=O)c(C(=O)[O-])cc(C3CC3)c12.[K+] [Compound 82K salt]
MIC: 0.125 to 0.25 µg/mL
--
COMPOUND: Cc1c(-c2ccc(N)nc2)c(F)cn2c(=O)c(C(=O)[O-])cc(C3CC3)c12.[K+] [Compound 60K salt]
MIC: 0.032 µg/mL
--
COMPOUND: Cc1c(-c2ccncc2)c(F)cn2c(=O)c(C(=O)[O-])cc(C3CC3)c12.[K+] [Compound 59K salt]
MIC: 0.064 µg/mL

Hi! Can you tell me MIC for each of these compounds?
1. Cc1c(-c2ccc(N3CCNCC3)nc2)ccn2c(=O)c(C(=O)[O-])cc(C3CC3)c12.[K+] [Compound 84K salt]
2. Cc1cc(-c2ccn3c(=O)c(C(=O)[O-])cc(C4CC4)c3c2C)ccn1.[K+] [Compound 65K salt]
3. Cc1c(-c2cn[nH]c2)ccn2c(=O)c(C(=O)[O-])cc(C3CC3)c12.[K+] [Compound 67K salt]

["0.125 to 0.25 µg/mL", "0.032 to 0.064 µg/mL", "0.032 µg/mL"]

###

I'd be grateful if you could share measured MIC for these entries.
# Tested on: E. coli ATCC 25922
# ASSAY_PROCEDURE: MIC, selected panel of Gram-positive and Gram-negative strains (Example 5)
# Assay type: cell-based, Escherichia coli
# ASSAY_CONTEXT: Escherichia coli, ATCC25922, read-out: MIC E. coli ATCC 25922
Answers are plain numbers, in µg/mL.

See these solved cases before continuing.
COMPOUND: Cc1c(-c2ccc(O)c(F)c2)ccn2c(=O)c(C(=O)[O-])cc(C3CC3)c12.[K+] [Compound 70K salt]
MEASURE_UNIT: µg/mL
MIC: 0.032

COMPOUND: Cc1c(-c2ccc(O)nc2)ccn2c(=O)c(C(=O)[O-])cc(C3CC3)c12.[K+] [Compound 55K salt]
MEASURE_UNIT: µg/mL
MIC: 0.5

COMPOUND: Cc1c(-c2ccc(O)cc2)c(F)cn2c(=O)c(C(=O)[O-])cc(C3CC3)c12.[K+] [Compound 61K salt]
MEASURE_UNIT: µg/mL
MIC: 0.032

COMPOUND: Cc1cc(-c2ccn3c(=O)c(C(=O)[O-])cc(C4CC4)c3c2C)cnc1N.[K+] [Compound 79K salt]
MEASURE_UNIT: µg/mL
MIC: 0.016

Turning now to a further compound:
Param item = Cc1c(-c2ccc(N)c(CN)c2)ccn2c(=O)c(C(=O)[O-])cc(C3CC3)c12.[K+] [Compound 76K salt] ; retrieve measured MIC. 0.032

###

# Tested on: A. baumannii A473
# ASSAY_PROCEDURE: Preliminary MBC without and with sub-inhibitory polymyxin B (Example 4)
# Format: cell-based, Acinetobacter baumannii
# ASSAY_CONTEXT: Acinetobacter baumannii, A473, A. baumannii A473, without polymyxin B, 2nd experiment, read-out: MBC without PB
I'd be grateful if you could share measured MBC for these entries.
Your reply should be a number followed by the unit it is expressed in.

Hi! Can you tell me MBC for each of these molecules?
1. Cc1c(-c2cc(Cl)c(N)c(Cl)c2)ccn2c(=O)c(C(=O)O)cc(C3CC3)c12
2. Cc1c(-c2ccc(N)cc2)c(F)cn2c(=O)c(C(=O)O)cc(C3CC3)c12
3. C[C@@H](O)[C@H]1C(=O)N2C(C(=O)O)=C(SCCN=CN)C[C@H]12 [Imipenem, reference compound]

1: 8 µg/mL; 2: 4 µg/mL; 3: 32 µg/mL

###

# Tested on: A. baumannii A472
# ASSAY_PROCEDURE: Preliminary MBC without and with sub-inhibitory polymyxin B (Example 4)
# Type: cell-based, Acinetobacter baumannii
# ASSAY_CONTEXT: Acinetobacter baumannii, A472, A. baumannii A472, without polymyxin B, 2nd experiment, read-out: MBC without PB
ASSAY_READOUT: MBC (mg/L)
Numbers only, in mg/L.

See these solved cases before continuing.
COMPOUND: C[C@@H](O)[C@H]1C(=O)N2C(C(=O)O)=C(SCCN=CN)C[C@H]12 [Imipenem, reference compound]
MBC [mg/L]: 8

COMPOUND: Cc1c(-c2ccc(N)cc2)c(F)cn2c(=O)c(C(=O)O)cc(C3CC3)c12 [Compound 7]
MBC [mg/L]: 8

COMPOUND: C[C@@H](O)[C@H]1C(=O)N2C(C(=O)O)=C(S[C@@H]3CN[C@H](C(=O)N(C)C)C3)[C@H](C)[C@H]12 [Meropenem, reference compound]
MBC [mg/L]: 8

COMPOUND: Cc1c(-c2ccc(CN)c(F)c2)ccn2c(=O)c(C(=O)O)cc(C3CC3)c12 [Compound 4]
MBC [mg/L]: 16

COMPOUND: Cc1c(-c2cc(F)c(N)cc2F)ccn2c(=O)c(C(=O)O)cc(C3CC3)c12 [Compound 2]
MBC [mg/L]: 8

Turning now to a further compound:
Param item = Cc1c(-c2ccc(N)cc2)ccn2c(=O)c(C(=O)O)cc(C3CC3)c12 [Compound 8] ; retrieve measured MBC. 4

###

I'd be grateful if you could share measured MIC for these entries.
# Tested on: resistant strains of A. baumannii and one strain of Acinetobacter sp.
# ASSAY_PROCEDURE: MIC without and with sub-inhibitory polymyxin B, whole panel / MIC ranges (Example 4; also strains not listed separately)
# Format: cell-based
# ASSAY_CONTEXT: Acinetobacter baumannii, NCTC13301, A. baumannii NCTC 13301; without polymyxin B; 1st experiment; read-out: MIC without PB
Answers are plain numbers, in µg/mL.

See these solved cases before continuing.
MOLECULE: Cc1c(-c2ccc(CN)cc2)c(F)cn2c(=O)c(C(=O)O)cc(C3CC3)c12
VALUE_MEASURED: 32
--
MOLECULE: Cc1c(-c2ccc(N)cc2)ccn2c(=O)c(C(=O)O)cc(C3CC3)c12
VALUE_MEASURED: 32
--
MOLECULE: C[C@@H](O)[C@H]1C(=O)N2C(C(=O)O)=C(SCCN=CN)C[C@H]12 [Imipenem, reference compound]
VALUE_MEASURED: 128
--
MOLECULE: C[C@H]1COc2c(N3CCN(C)CC3)c(F)cc3c(=O)c(C(=O)O)cn1c23 [Levofloxacin, reference compound]
VALUE_MEASURED: 32

Turning now to a further molecule:
GET /values?readout=MIC&system=resistant strains of A. baumannii and one strain of Acinetobacter sp.&item= C[C@@H](O)[C@H]1C(=O)N2C(C(=O)O)=C(S[C@@H]3CN[C@H](C(=O)N(C)C)C3)[C@H](C)[C@H]12 [Meropenem, reference compound] 32

Reference source for all entries: patent US10155021B2
